ASSAY_TARGET: HIV Env, isolate 249MB10 (HIV)
TEST_NAME: cell-based or functional assay
ASSAY_ENDPOINT: IC80 (µg/ml) with constrains (µg/mL)
One number for each entry, in µg/mL.

The following binders have reported results that may help.
{"columns": ["BINDER", "IC80 (µg/ml) with constrains, µg/mL"],
 "data": [
  ["PGDM1400 (antibody, V domains shown) VH: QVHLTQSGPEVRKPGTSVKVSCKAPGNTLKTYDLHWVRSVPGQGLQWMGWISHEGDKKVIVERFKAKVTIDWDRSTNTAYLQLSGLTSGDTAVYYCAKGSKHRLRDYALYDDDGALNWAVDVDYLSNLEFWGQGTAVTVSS VL: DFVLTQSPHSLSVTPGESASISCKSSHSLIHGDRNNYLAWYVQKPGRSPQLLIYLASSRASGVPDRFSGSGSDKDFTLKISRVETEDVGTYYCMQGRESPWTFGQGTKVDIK", 0.085],
  ["ePGDM5 (antibody, V domains shown) VH: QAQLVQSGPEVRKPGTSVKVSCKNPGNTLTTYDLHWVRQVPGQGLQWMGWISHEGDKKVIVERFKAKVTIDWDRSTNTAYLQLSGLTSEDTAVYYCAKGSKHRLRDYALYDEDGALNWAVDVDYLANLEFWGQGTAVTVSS VL: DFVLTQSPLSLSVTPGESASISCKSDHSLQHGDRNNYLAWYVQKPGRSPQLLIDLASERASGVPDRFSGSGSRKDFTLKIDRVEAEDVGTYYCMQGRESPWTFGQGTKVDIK", 0.045],
  ["ePGDM9 (antibody, V domains shown) VH: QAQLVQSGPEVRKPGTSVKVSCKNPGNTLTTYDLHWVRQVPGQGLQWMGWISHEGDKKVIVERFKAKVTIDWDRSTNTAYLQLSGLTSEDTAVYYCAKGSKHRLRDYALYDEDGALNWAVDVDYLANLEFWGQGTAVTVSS VL: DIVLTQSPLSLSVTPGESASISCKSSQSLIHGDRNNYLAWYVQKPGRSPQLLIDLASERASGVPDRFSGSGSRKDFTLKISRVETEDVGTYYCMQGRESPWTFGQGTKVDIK", 0.028]
]}

Now for the binder whose IC80 (µg/ml) with constrains we want.
Reported IC80 (µg/ml) with constrains, binder ePGDM13 (antibody, V domains shown) VH: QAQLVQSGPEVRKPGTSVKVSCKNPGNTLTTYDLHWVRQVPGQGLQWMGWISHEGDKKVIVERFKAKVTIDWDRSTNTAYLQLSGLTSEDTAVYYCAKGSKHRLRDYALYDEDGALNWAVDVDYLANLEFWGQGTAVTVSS VL: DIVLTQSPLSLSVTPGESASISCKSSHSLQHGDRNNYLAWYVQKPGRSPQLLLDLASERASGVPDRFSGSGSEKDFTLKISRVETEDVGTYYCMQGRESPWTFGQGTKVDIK : ____
0.13

Ref: patent US20230134571A1
